Values from patent US5652232A

# maps each entry to its CC50 at 120 h
# TEST_METHOD_NOTES: Cytotoxicity against MT-4 cells (MTT)
# Format: cell-based
# APPLIED_CONDITIONS: human; MT-4 cells, no virus, 5 days at 37° C., MTT; read-out: CC50: concentration of test compound inducing 50% cytotoxicity
# Method: (A) A human T-cell strain MOLT-4 clone 8, persistently infected with HIV (HIV-1IIIB strain), was cultured in RPMI-1640 medium supplemented with 10% fetal bovine serum. The culture supernatant was then filtered and stored at -80° C. after a measurement of viral titer. […] Cells having survived reduced MTT to precipitate formazan. […] The dissolved formazan was measured by O.D. at 540 nm and the results were compared with referenced control. […]
MEASUREMENT_LABEL: CC50 at 120 h

compound="CC(C)[C@H]1C(=O)N[C@@H](CO)CCc2ccccc2N1C (relative stereo) [epi-BL-V9]" value_measured="> 10 µg/mL"
compound="CCCCCCCCCCc1ccc2c(c1)N(C)[C@H](C(C)C)C(=O)N[C@H](CO)CC2 (relative stereo) [epi-BL-V9-310]" value_measured="5 to 10 µg/mL"
compound="CC(C)[C@@H]1C(=O)N[C@H](CO)Cc2cc3c(cc2N1C)C(C)(C)CCC3(C)C (relative stereo) [epi-BL-V8-23T]" value_measured="1 to 10 µg/mL"
compound="CCCCCCCCCCc1ccc2c(c1)N(C)[C@@H](C(C)C)C(=O)N[C@H](CO)CC2 (relative stereo) [BL-V9-310]" value_measured="10 µg/mL"
compound="CC(C)[C@H]1C(=O)N[C@H](CO)Cc2ccccc2N1C (relative stereo) [BL-V8]" value_measured="10 µg/mL"
compound="CC(C)[C@H]1C(=O)N[C@H](CO)Cc2cc3c(cc2N1C)C(C)(C)CCC3(C)C (relative stereo) [BL-V8-23T]" value_measured="1 to 10 µg/mL"
compound="CCCCCCCCCCc1ccc2c(c1)N(C)[C@H](C(C)C)C(=O)N[C@H](CO)C2 [(+)-epi-BL-V8-310]" value_measured="5 to 10 µg/mL"

====

# TEST_METHOD_NOTES: Cytotoxicity against MT-4 cells (MTT)
# Format: cell-based
# APPLIED_CONDITIONS: human; MT-4 cells, no virus, 5 days at 37° C., MTT; read-out: CC50: concentration of test compound inducing 50% cytotoxicity
# Protocol: (A) A human T-cell strain MOLT-4 clone 8, persistently infected with HIV (HIV-1IIIB strain), was cultured in RPMI-1640 medium supplemented with 10% fetal bovine serum. The culture supernatant was then filtered and stored at -80° C. after a measurement of viral titer. […] Cells having survived reduced MTT to precipitate formazan. […] The dissolved formazan was measured by O.D. at 540 nm and the results were compared with referenced control. […]
MEASUREMENT_LABEL: CC50 at 120 h (µg/mL)

compound="CC(C)[C@H]1C(=O)N[C@@H](CO)Cc2ccccc2N1C (relative stereo) [epi-BL-V8]" measurement_label="CC50 at 120 h" value_operator== value_measured=10
compound="CCCCCCCCCCc1ccc2c(c1)N(C)[C@@H](C(C)C)C(=O)N[C@H](CO)C2 (relative stereo) [(±)-BL-V8-310]" measurement_label="CC50 at 120 h" value_operator== value_measured=1
compound="CCCCCCCCCCc1ccc2c(c1)N(C)[C@@H](C(C)C)C(=O)N[C@@H](CO)C2 (relative stereo) [(±)-epi-BL-V8-310]" measurement_label="CC50 at 120 h" value_operator== value_measured=1
compound="CC(C)[C@H]1C(=O)N[C@H](CO)CCc2ccccc2N1C (relative stereo) [BL-V9]" measurement_label="CC50 at 120 h" value_operator=> value_measured=10
